# melting point values compiled below
Counter-ions that a name gives are not always drawn.

# Molecule, Parameter, Observed value
data = [
    ("CCCCN(C)CCc1ccc(Nc2ncc3c(n2)-c2ccccc2[C@H](c2ccccc2F)C3)cc1 (as salt: hydrochloride)", "melting point", "78 to 81 °C"),
    ("CN1CCN(CCc2cc(Nc3ncc4c(n3)-c3ccccc3[C@H](c3ccccc3F)C4)ccc2F)CC1 (as salt: hydrochloride)", "melting point", "225 to 229 °C"),
]

So what does the record say about melting point for CN(C)CCCCNc1ncc2c(n1)-c1ccccc1C(c1cccc(Br)c1)C2 (stereo not shown) ? 115 to 117 °C

Item: Brc1cccc(C2Cc3cnc(Nc4ccc(CCN5CCOCC5)cc4)nc3-c3ccccc32)c1 (stereo not shown) 86 to 88 °C

Item: `CN(CCc1ccc(Nc2ncc3c(n2)-c2ccccc2[C@H](c2ccc(F)cc2)C3)cc1)C1CCCCC1` 160 to 162 °C

Item: COCCN1CCN(CCc2ccc(Nc3ncc4c(n3)-c3ccccc3[C@H](c3ccc(Br)cc3)C4)cc2)CC1 (as salt: hydrochloride) 265 to 270 °C

Item: Fc1ccccc1[C@@H]1Cc2cnc(Nc3cccc(CCN4CCNCC4)c3)nc2-c2ccccc21 (as salt: hydrochloride) [Example 160] 193 to 199 °C

---

# melting point values compiled below
Structures can show the parent of a compound that is named as a salt.

# Molecule, melting point
rows = [
    ("COCCN1CCN(CCc2ccc(Nc3ncc4c(n3)-c3ccccc3[C@H](c3ccc(Cl)cc3)C4)cc2)CC1 (as salt: hydrochloride)", "261 to 263 °C"),
    ("OCCc1ccc(Nc2ncc3c(n2)-c2ccccc2C(c2ccc(F)c(F)c2)C3)cc1 (stereo not drawn)", "170 to 172 °C"),
    ("CN(CCc1ccc(Nc2ncc3c(n2)-c2ccccc2C(c2cccc(Br)c2)C3)cc1)CCc1ccccn1 (stereo not drawn)", "75 to 77 °C"),
    ("CN(CCc1ccccc1)CCc1ccc(Nc2ncc3c(n2)-c2ccccc2C(c2cccc(Br)c2)C3)cc1 (stereo not drawn)", "80 to 82 °C"),
    ("Nc1ncc2c(n1)-c1ccccc1[C@H](c1ccc(Cl)c(Cl)c1)C2", "159 to 160 °C"),
]

So what does the record say about melting point for CCCCN(C)CCc1cc(Nc2ncc3c(n2)-c2ccccc2[C@H](c2ccccc2F)C3)ccc1F (as salt: hydrochloride) ? 125 to 130 °C

Item: `OCc1cccc(Nc2ncc3c(n2)-c2ccccc2[C@H](c2ccccc2F)C3)c1` 158 to 159 °C

Item: OCCc1ccc(Nc2ncc3c(n2)-c2ccccc2C(c2ccc(Cl)cc2)C3)cc1 (stereo not drawn) 163 to 164 °C

Item: COCCN1CCN(Cc2cccc(Nc3ncc4c(n3)-c3ccccc3[C@H](c3ccccc3F)C4)c2)CC1 (as salt: hydrochloride) 173 to 178 °C

---

Where a name gives a salt, the structure may show the parent alone.
Parameter: melting point

// worked examples, melting point included
# Compound, melting point
rows = [
    ("CCCCNCCc1cc(Nc2ncc3c(n2)-c2ccccc2[C@H](c2ccccc2F)C3)ccc1F (as salt: hydrochloride) [Example 171]", "180 to 185 °C"),
    ("COCCN1CCN(CCc2ccc(Nc3ncc4c(n3)-c3ccccc3C(c3ccc(Cl)cc3Cl)C4)cc2)CC1 (centres unmarked) (as salt: hydrochloride)", "208 to 212 °C"),
    ("COCCNCCc1ccc(Nc2ncc3c(n2)-c2ccccc2[C@H](c2ccc(F)c(F)c2)C3)cc1 (as salt: HCl) [Example 82]", "221 to 225 °C"),
    ("COCCN1CCN(CCc2ccc(Nc3ncc4c(n3)-c3ccccc3[C@@H](c3ccc(F)c(F)c3)C4)cc2)CC1 (as salt: hydrochloride) [Example 90]", "190 to 192 °C"),
    ("Clc1ccc(C2Cc3cnc(Nc4ccc(CCN5CCCCC5)cc4)nc3-c3ccccc32)cc1Cl (centres unmarked)", "181 to 183 °C"),
]

Then there is this compound:
So what does the record say about melting point for Brc1ccc([C@H]2Cc3cnc(Nc4ccc(CCN5CCCCC5)cc4)nc3-c3ccccc32)cc1 (as salt: hydrochloride) [Example 108] ? 170 to 175 °C

---

# melting point values compiled below
Where a name gives a salt, the structure may show the parent alone.

// worked examples, melting point included
# Compound, Observed value
records = [
    ("CN(CCc1ccc(Nc2ncc3c(n2)-c2ccccc2C(c2ccc(F)c(F)c2)C3)cc1)C1CCCCC1 (stereo not drawn) (as salt: hydrochloride)", "107 to 114 °C"),
    ("CN1CCN(CCc2ccc(Nc3ncc4c(n3)-c3ccccc3C(c3ccccc3C(F)(F)F)C4)cc2)CC1 (stereo not drawn)", "157 to 158 °C"),
]

So what does the record say about melting point for Nc1ncc2c(n1)-c1ccccc1C(c1ccc(Cl)c(Cl)c1)C2 (stereo not drawn) ? 159 to 160 °C

Item: CCN(CCc1ccc(Nc2ncc3c(n2)-c2ccccc2C(c2cccc(Br)c2)C3)cc1)C(C)C (stereo not drawn) 67 to 69 °C

Item: Nc1ncc2c(n1)-c1ccc(-c3ccccc3)cc1C(c1ccc(Cl)c(Cl)c1)C2 (stereo not drawn) 186 to 187 °C

Item: CCCCN(C)CCc1ccc(Nc2ncc3c(n2)-c2ccccc2[C@H](c2ccc(Cl)c(Cl)c2)C3)cc1 (as salt: hydrochloride) 135 to 145 °C

---

# melting point values compiled below
Counter-ions that a name gives are not always drawn.

// worked examples, melting point included
# Compound, melting point
rows = [
    ("CCCCN(C)CCc1cccc(Nc2ncc3c(n2)-c2ccccc2[C@H](c2ccccc2F)C3)c1 (as salt: hydrochloride)", "163 to 167 °C"),
    ("CCCCN(C)CCc1ccc(Nc2ncc3c(n2)-c2ccccc2[C@H](c2cccc(Br)c2)C3)cc1 (as salt: hydrochloride)", "146 to 153 °C"),
    ("N#Cc1c(N)ncc2c1-c1ccccc1C(c1ccc(Cl)cc1Cl)C2 (centres unmarked)", "282 to 284 °C"),
    ("CN(CCc1ccc(Nc2ncc3c(n2)-c2ccccc2C(c2ccc(Cl)c(Cl)c2)C3)cc1)C1CCCCC1 (centres unmarked)", "130 to 131 °C"),
    ("COCCNCc1cccc(Nc2ncc3c(n2)-c2ccccc2[C@H](c2ccccc2F)C3)c1 (as salt: HCl) [Example 158]", "139 to 147 °C"),
    ("Brc1cccc(C2Cc3cnc(Nc4ccc(CCNCCN5CCOCC5)cc4)nc3-c3ccccc32)c1 (centres unmarked)", "85 to 87 °C"),
    ("CN(CCc1ccccc1)CCc1ccc(Nc2ncc3c(n2)-c2ccccc2[C@H](c2ccccc2F)C3)cc1 (as salt: hydrochloride)", "135 to 145 °C"),
    ("Clc1ccc(C2Cc3cnc(Nc4ccc(CCN5CCCCC5)cc4)nc3-c3ccccc32)c(Cl)c1 (centres unmarked) (as salt: hydrochloride)", "225 to 230 °C"),
]

So what does the record say about melting point for Clc1ccc([C@@H]2Cc3cnc(Nc4cccc(CCN5CCCCC5)c4)nc3-c3ccccc32)cc1Cl (as salt: hydrochloride) ? 165 to 169 °C

Item: COCCN1CCN(CCc2ccc(Nc3ncc4c(n3)-c3ccccc3C(c3ccc(Cl)c(Cl)c3)C4)cc2)CC1 (centres unmarked) 121 to 122 °C

Item: CN(CCc1ccccc1)CCc1ccc(Nc2ncc3c(n2)-c2ccccc2[C@H](c2cccc(Br)c2)C3)cc1 (as salt: HCl) 146 to 153 °C

// data source = patent US8357694B2
